# PROTOCOL DESCRIPTION: ROS inducers in U2OS cancer cells, primary screen, cell-based, H2DCF-DA fluorescence (AID 624156);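 further: 0% = DMSO vehicle median and 100% = reference compound median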
# CONDITION CONTEXT: at 10 µM, stronger effect = higher value
The whole screen tested about 46,000 compounds, of which about 900 (2%) were called active. About 1% were inconclusive and are not listed. The entries come from a sample that favours actives as a whole.
Reported ROS induction (% of piperlongumine) is given for each of the following compounds.
PARAMETER: ROS induction (% of piperlongumine)

COMPOUND: C[C@@H]1CCCCO[C@H](CN(C)S(=O)(=O)c2cccs2)[C@@H](C)CN([C@H](C)CO)C(=O)c2cc(NC(=O)Nc3ccccc3)ccc2O1
VALUE REPORTED: 37.3% (inactive)
//
COMPOUND: COC(=O)c1ccc(NCc2cc(O)ccc2O)cc1
VALUE REPORTED: 10.2% (inactive)
//
COMPOUND: C[C@H]1CN([C@@H](C)CO)C(=O)Cc2cc(NS(=O)(=O)c3cccs3)ccc2O[C@H]1CN(C)Cc1ccncc1
VALUE REPORTED: -8.79% (inactive)
//
COMPOUND: Fc1ccc(NCc2cn(-c3ccccc3)nc2-c2cccs2)c(F)c1
VALUE REPORTED: -6.92% (inactive)
//
COMPOUND: CCCC(O)C#Cc1cnc2c(c1)C(=O)N([C@H](C)CO)C[C@H](C)[C@H](CN(C)Cc1ccc(F)cc1)O2 (some centres undefined)
VALUE REPORTED: 94.3% (active)
//
COMPOUND: C[C@@H]1CN([C@H](C)CO)C(=O)c2cc(NS(=O)(=O)c3cccs3)ccc2O[C@H]1CN(C)Cc1ccncc1
VALUE REPORTED: 26% (inactive)
//
COMPOUND: COC(=O)c1ccccc1NC(=O)CSc1n[nH]c(-c2ccncc2)n1
VALUE REPORTED: -0.326% (inactive)
//
COMPOUND: CNC(=O)NC(=O)CSc1ncnc2sc(-c3ccccc3)cc12
VALUE REPORTED: 5.81% (inactive)
//
COMPOUND: CC(=NCc1ccco1)C1=C(O)c2ccccc2C1=O
VALUE REPORTED: 146% (active)
//
COMPOUND: C[C@@H]1CCCCO[C@@H](CN(C)S(=O)(=O)c2cccs2)[C@@H](C)CN([C@H](C)CO)C(=O)c2cc(NC(=O)Nc3ccc(F)cc3)ccc2O1
VALUE REPORTED: 55.6% (inactive)
//
COMPOUND: COc1ccc(NC(=O)N(C)C[C@@H]2Oc3ncc(-c4cccc(OC)c4)cc3C(=O)N([C@H](C)CO)C[C@@H]2C)cc1
VALUE REPORTED: 69.6% (inactive)
//
COMPOUND: COc1ccc(C=NCc2ccc(OC)c(OC)c2)cc1OC
VALUE REPORTED: 12.4% (inactive)
//
COMPOUND: C[C@H]1CN([C@@H](C)CO)C(=O)Cc2cc(NS(=O)(=O)c3cccs3)ccc2O[C@@H]1CN(C)Cc1ccc(Oc2ccccc2)cc1
VALUE REPORTED: 92.6% (active)
//
COMPOUND: C[C@@H]1CCCCO[C@H](CN(C)Cc2ccncc2)[C@@H](C)CN([C@H](C)CO)C(=O)c2cc(NS(C)(=O)=O)ccc2O1
VALUE REPORTED: -7.81% (inactive)
//
COMPOUND: C[C@H](CO)N1C[C@H](C)[C@H](CN(C)C(=O)Nc2ccc(F)cc2)Oc2ncc(-c3cc4ccccc4o3)cc2C1=O
VALUE REPORTED: 130% (active)
//
COMPOUND: Cc1noc(C)c1NC(=O)Nc1ccc2c(c1)CC(=O)N([C@H](C)CO)C[C@@H](C)[C@@H](CN(C)Cc1ccc(C(F)(F)F)cc1)O2
VALUE REPORTED: 6.6% (inactive)
//
COMPOUND: COc1ccccc1N(CC(=O)Nc1ccc(C(F)(F)F)cc1)S(C)(=O)=O
VALUE REPORTED: 4.82% (inactive)
//
COMPOUND: Cc1ccc(Nc2cc(C(=O)NCC3CCCO3)c3ccccc3n2)cc1C (centres undefined)
VALUE REPORTED: 1.21% (inactive)
//
COMPOUND: CCOc1ccc2c(=O)c(Oc3ccccc3Br)coc2c1
VALUE REPORTED: 0.931% (inactive)
//
COMPOUND: CC(=NCc1ccc2c(c1)OCO2)C1=C(O)c2ccccc2C1=O
VALUE REPORTED: 3.64% (inactive)
//
COMPOUND: COc1ccc(C)cc1S(=O)(=O)N1CCN(C)CC1
VALUE REPORTED: -20.4% (inactive)
//
COMPOUND: Cc1noc(C)c1NC(=O)N(C)C[C@@H]1Oc2ccc(NC(=O)Nc3ccc(C(F)(F)F)cc3)cc2C(=O)N([C@H](C)CO)C[C@@H]1C
VALUE REPORTED: -6.13% (inactive)
//
COMPOUND: CCCC(O)C#Cc1cnc2c(c1)C(=O)N([C@H](C)CO)C[C@H](C)[C@H](CN(C)S(=O)(=O)c1ccc(C#N)cc1)O2 (some centres undefined)
VALUE REPORTED: -0.235% (inactive)
//
COMPOUND: Brc1ccc(CSc2c[nH]c3ccccc23)cc1
VALUE REPORTED: -17.1% (inactive)
//
COMPOUND: C[C@H]1CN([C@@H](C)CO)C(=O)c2cc(NC(=O)Cc3cn(C)c4ccccc34)ccc2O[C@H]1CN(C)Cc1ccc(Cl)c(Cl)c1
VALUE REPORTED: 4.82% (inactive)
//
COMPOUND: C[C@H](CO)N1C[C@H](C)[C@H](CN(C)Cc2ccccc2)Oc2ncc(-c3ccccc3)cc2C1=O
VALUE REPORTED: 3.81% (inactive)
//
COMPOUND: C[C@@H]1CCCCO[C@@H](CN(C)S(=O)(=O)c2cccs2)[C@@H](C)CN([C@H](C)CO)C(=O)c2cc(NC(=O)Nc3ccc4c(c3)OCO4)ccc2O1
VALUE REPORTED: 91.3% (active)
//
COMPOUND: Brc1ccc(/C=N/n2cnnc2SCc2ccccc2)cc1
VALUE REPORTED: 2.37% (inactive)
//
COMPOUND: Cc1noc(C)c1NC(=O)N(C)C[C@H]1Oc2ccc(NC(=O)Nc3ccc(C(F)(F)F)cc3)cc2CC(=O)N([C@@H](C)CO)C[C@@H]1C
VALUE REPORTED: 87.8% (active)
//
COMPOUND: C[C@@H]1CN([C@H](C)CO)C(=O)c2cc(NC(=O)Nc3ccc(C(F)(F)F)cc3)ccc2O[C@H]1CN(C)C(=O)Nc1ccccc1
VALUE REPORTED: 23.2% (inactive)
//
COMPOUND: O=C(CSc1nc(-c2cccs2)cc(C(F)(F)F)n1)OCCCc1ccccc1
VALUE REPORTED: 1.26% (inactive)
//
COMPOUND: CCc1cccc(O[C@@H]2O[C@@H]3COC(c4ccccc4)O[C@H]3[C@H](O)[C@H]2NC(C)=O)c1 (some centres undefined)
VALUE REPORTED: -15.2% (inactive)
//
COMPOUND: COc1ccc(OC)c(NC(=O)CSc2n[nH]c(-c3ccncc3)n2)c1
VALUE REPORTED: 148% (active)
//
COMPOUND: NS(=O)(=O)c1ccc(CCNC2=CC(=O)OC23CCCCC3)cc1
VALUE REPORTED: -9.03% (inactive)
